Data origin, for the record: PubChem BioAssay (NCI)

Test system: NCI-H522 lung
Test: NCI tumour cell line growth inhibition, 48 h

- Compound: "COc1ccc2c3c([nH]c2c1)C(=O)c1nc(C)ccc1C3=O"
  GI50: "3.83 µM"
- Compound: "C=C1C(=O)O[C@H]2[C@H]1CC/C(COC(=O)NCc1ccc(Cn3c(=O)sn(CCCC)c3=O)cc1)=C\\CC[C@@]1(C)O[C@@H]21"
  GI50: "1.19 µM"
- Compound: "Cc1ccc(C2CC(c3cccc(Nc4ccncc4)c3)=NN2c2cc(Cl)cc(Cl)c2)cc1 (stereo not given)"
  GI50: "1.73 µM"
- Compound: "Cc1cc(Cl)ccc1Nc1nc(C(F)(F)F)ccc1C(=O)N/N=C/c1cccc(O)c1"
  GI50: "8.28 µM"
- Compound: "N#C/C(=C\\c1ccc2c(c1)OCO2)n1nnc2ccccc21"
  GI50: "0.27 µM"
- Compound: "Cc1ccc(Cl)cc1Nc1nc(C(F)(F)F)ccc1C(N)=O"
  GI50: "4.63 µM"
- Compound: "COC(=O)c1oc2c(C(C)=O)c(OCCN3CCOCC3)c(OC)cc2c1C"
  GI50: "> 100 µM"
- Compound: "COc1ccc2c(c1)C(=Nc1ccc(F)c(F)c1F)c1c-2c(Nc2ccc(F)c(F)c2F)nc2ccccc12"
  GI50: "59.8 µM"
- Compound: "CCOC(=O)C(=Cc1ccc(-c2ccccc2)cc1)C(=O)OCC"
  GI50: "1.68 µM"
- Compound: "c1ccc(-c2n(Cc3ccc4ccccc4n3)cc[n+]2Cc2ccc3ccccc3n2)cc1"
  GI50: "1.92 µM"
- Compound: "COc1ccccc1NC(=O)c1ccc(NC2=C(Cl)C(=O)N(Cc3ccccc3)C2=O)cc1"
  GI50: "5.09 µM"
- Compound: "O=C1Nc2ccccc2/C1=C/C(=N/c1nnc(-c2ccc(Cl)cc2)s1)c1ccccc1"
  GI50: "0.518 µM"
- Compound: "O=c1cc(-c2ccccc2)oc2cc(OCc3cn(Cc4ccc(F)cc4)nn3)cc(OCc3cn(Cc4ccc(F)cc4)nn3)c12"
  GI50: "3.66 µM"
- Compound: "CCOc1cc2ncc(C#N)c(Nc3ccc(F)c(Cl)c3)c2cc1NC(=O)CC1CCSS1 (stereo not given)"
  GI50: "0.786 µM"
- Compound: "N#Cc1cc2c(cc1Cl)SC(=Nc1ccccc1)N(S(=O)(=O)c1ccc(Cl)cc1)S2(=O)=O"
  GI50: "3.29 µM"

* * *

Examples of molecules with documented TGI follow.
Tested on: RPMI-8226 leukemia
Test: NCI tumour cell line growth inhibition, 48 h
Reported Property: TGI (µM)

- Molecule: "Clc1ccc(OCc2nnc3n2N=C(c2ccccc2)CS3)cc1"
  Limit Operator: "="
  Meas Value: 32.7
- Molecule: "COC(=O)c1ccc2[nH]c(O)c(C(=Nc3ccc(N(C)C(=O)CN4CCN(C)CC4)cc3)c3cccc(OC)c3)c2c1"
  Limit Operator: "="
  Meas Value: 3.55
- Molecule: "O=C(NC(N1CCN(c2cc3c(cc2F)c(=O)c(C(=O)O)cn3C2CC2)CC1)(C(F)(F)F)C(F)(F)F)c1ccccc1"
  Limit Operator: "="
  Meas Value: 69.9
- Molecule: "O=C(c1ccccc1)N(C(=S)NCCc1ccc(Cl)cc1)c1ccc(Cl)cc1"
  Limit Operator: "="
  Meas Value: 5.66
- Molecule: "CCOc1ccc(/C=C\\c2cc(OC)c(OC)c(OC)c2)cc1"
  Limit Operator: "="
  Meas Value: 5.03
- Molecule: "Fc1cc(-c2csc3n[nH]c(=S)n23)c(Cl)cc1Cl"
  Limit Operator: ">"
  Meas Value: 100
- Molecule: "CC1=C(C)C2(C#N)C(=O)N3C(=NC(c4ccccc4)NC3c3ccccc3)C2(C#N)C(c2ccccc2)N1 (stereo not given)"
  Limit Operator: ">"
  Meas Value: 100
- Molecule: "COC(=O)C1=C(C(=O)OC)C2(C3C(SC)=CC(C)(C)CC3S1)N(Cc1ccccc1)CCN2Cc1ccccc1 (stereo not given)"
  Limit Operator: ">"
  Meas Value: 100
- Molecule: "COc1ccccc1C=NC12CC3CC(CC(C3)C1)C2"
  Limit Operator: ">"
  Meas Value: 100
- Molecule: "CN(C)C=Nc1ccc2c3c(cccc13)-c1ccccc1-2"
  Limit Operator: "="
  Meas Value: 38.9
- Molecule: "Cc1cccc(C)c1NC(=O)/C=C/c1ccccc1"
  Limit Operator: ">"
  Meas Value: 100
- Molecule: "COc1ccc(NC(=O)CC(=O)n2nc(-c3ccccc3)c(N=Nc3ccccc3C(=O)O)c2-c2ccccc2)cc1"
  Limit Operator: ">"
  Meas Value: 100
- Molecule: "COc1ccc(-c2cc(-c3ccccc3)nc(N)c2-c2ccc3ccccc3c2)cc1"
  Limit Operator: "="
  Meas Value: 4.74
- Molecule: "N[C@@H]1CCCC[C@@H]1N.O=P([O-])([O-])CNCP(=O)([O-])[O-].[Pt+2]"
  Limit Operator: ">"
  Meas Value: 100
- Molecule: "CCc1c(-c2ccccc2)[nH]c2ccccc2c1=O"
  Limit Operator: ">"
  Meas Value: 100
- Molecule: "CC(C)c1ccc(COCc2cc(CN3CCCC3)c(O)c3ncccc23)cc1"
  Limit Operator: "="
  Meas Value: 2.72
- Molecule: "Cc1cccc(-n2c(C)nc3ccc(NC(=S)Nc4ccccc4)cc3c2=O)c1"
  Limit Operator: ">"
  Meas Value: 100
- Molecule: "N/N=C(\\CCN1CCCC1)CC(c1ccccc1)c1c(O)c2ccccc2oc1=O (stereo not given)"
  Limit Operator: ">"
  Meas Value: 100
- Molecule: "COc1ccc(C(=O)N2N=C(c3ccc(Br)cc3)CC2c2cn(-c3ccccc3)nc2-c2ccccc2)cc1 (stereo not given)"
  Limit Operator: ">"
  Meas Value: 50
- Molecule: "O=c1cc(N2CCOCC2)[nH]c(=O)n1-c1cccc(Cl)c1"
  Limit Operator: ">"
  Meas Value: 100
